Values compiled from ChEMBL document CHEMBL5724796.

Please go through the items and note down their ΔTm.
- tgt: Cyclin-dependent kinase 2 (Homo sapiens)
- measurementParameters: Compound concentration 20.0 uM
- Description: Thermal Shift Assay. Domain: start/stop: M1-L298
Answers are plain numbers, in °C.

Sample answers from the record:
molecule	ΔTm / °C
CC(=O)N1CCN([C@H]2CCC[C@@H](NC(=O)c3cc4c(F)ccc(C)c4[nH]3)C2)CC1	0.08
Cc1nccn1CC1CCc2c(c3ccccc3n2C)C1=O (stereo not drawn)	-0.09
COC[C@@H]1CCCN1S(=O)(=O)c1ccc2c(c1)C(=O)C(=O)N2	-0.41

Batch request: ΔTm for each of the following molecules.
1. CCNC(=O)/C=C/c1cccc(Br)c1
2. COc1cc(-c2cn(C)c(=O)c3cnccc23)cc(OC)c1CN(C)C
3. COc1ncc(C)cc1CC[C@@](O)(CC(=O)O)C(=O)O

## Result
1: 0.01; 2: 0.82; 3: 0.22

###

Please go through the items and note down their ΔTm.
- tgt: Mitogen-activated protein kinase 1 (Homo sapiens) (UniProt P28482)
- Sequence (P28482 whole entry): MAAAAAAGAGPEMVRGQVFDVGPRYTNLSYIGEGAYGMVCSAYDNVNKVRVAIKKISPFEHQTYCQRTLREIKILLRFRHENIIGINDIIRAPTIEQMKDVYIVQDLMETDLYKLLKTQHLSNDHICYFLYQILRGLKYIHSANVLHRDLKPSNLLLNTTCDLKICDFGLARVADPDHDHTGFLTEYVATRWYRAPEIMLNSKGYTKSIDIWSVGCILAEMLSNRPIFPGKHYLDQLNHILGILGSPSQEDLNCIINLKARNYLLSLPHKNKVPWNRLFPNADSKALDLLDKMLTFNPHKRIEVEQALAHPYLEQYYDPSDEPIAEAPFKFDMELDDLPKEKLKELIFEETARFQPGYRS
- measurementParameters: Compound concentration 20.0 uM
- Description: Thermal Shift Assay. Domain: start/stop: M1-S360
Residues, ends and D or L forms follow the SMILES beside them. *: point of attachment. CH2Cl = ClC*
Numbers only, in °C.

>>> df
                                   compound  unitannotation  quantitativeresult
0  Cc1c(CN2CCC(Nc3ncnc4sc(CC(F)(F)F)cc34)CC2)ccc2c1cc(C#N)n2Cc1cn[nH]c1              °C               -7.35
1  CC1(C)CC[C@]2(C(=O)O)CC[C@]3(C)C(=CC[C@@H]4[C@@]5(C)C=C(O)C(=O)C(C)(C)[C@@H]5CC[C@]43C)[C@@H]2C1              °C               -3.78

Batch request: ΔTm for each of the following compounds.
1. Cc1nc(N)c2nnn(C[C@H]3CN(Cc4nccs4)CCO3)c2n1
2. C[C@@H]1CN(c2ncc(Cl)c(Nc3ccc4c(c3)n(CCC(C)(C)O)c(=O)n4C)n2)C[C@H](C)C1(F)F
3. CC(=O)N[C@@H](CC(C)C)C(=O)N[C@@H](CCC(=O)O)C(=O)N[C@@H](Cc1cnc[nH]1)C(=O)N[C@@H](CC(=O)O)C(=O)CCl (Ac-LEHD-CH2Cl)
4. CC(=O)N[C@@H](C)C(=O)N[C@@H](CCC(=O)O)C(=O)N[C@H](C(=O)N[C@@H](C=O)CC(=O)O)C(C)C

## Result
1: 0.04; 2: -8.12; 3: 0.29; 4: 0.23

###

- tgt: Cyclin-dependent kinase 2 (Homo sapiens) (UniProt P24941)
- measurementParameters: Compound concentration 20.0 uM
Please go through the items and note down their ΔTm.
Answers are plain numbers, in °C.

Sample answers from the record:
                          chemicalstructure  quantitativeresult
0  COc1ccc(N2CCN(C(=O)c3cc4c(s3)-c3ccccc3S(=O)(=O)C4)CC2)cc1                0.12
1  Cc1cnc(-c2ccccc2C(C)C)nc1NCc1ccc(-n2ccnn2)cc1               -0.07
2  CC(C)(C)c1ccc(S(=O)(=O)NCc2ccc(C(=O)Nc3cccnc3)cc2)cc1               -0.13

Could you now look at the following compound, please?
## Task Consider the compound "CCN(C(=O)c1cc(F)ccc1Oc1cncnc1N1CC2(CCN(C[C@H]3CC[C@H](NS(=O)(=O)CC)CC3)CC2)C1)C(C)C" . State its measured ΔTm.
## Result 0.16
